Entries and their MC4R cAMP EC50
# System: human melanocortin 4 receptor (human), P32245
# Sequence (P32245 whole entry): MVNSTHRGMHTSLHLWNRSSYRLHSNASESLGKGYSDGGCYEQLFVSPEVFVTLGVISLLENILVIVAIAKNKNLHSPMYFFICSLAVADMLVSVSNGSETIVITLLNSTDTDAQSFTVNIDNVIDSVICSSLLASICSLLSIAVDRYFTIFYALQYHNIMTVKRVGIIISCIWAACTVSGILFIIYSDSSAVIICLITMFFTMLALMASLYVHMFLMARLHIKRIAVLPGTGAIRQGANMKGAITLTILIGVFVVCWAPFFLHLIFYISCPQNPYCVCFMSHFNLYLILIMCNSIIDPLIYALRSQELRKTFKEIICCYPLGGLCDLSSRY
# Protocol Notes: cell-based or functional assay

Worked set:
I'd like to know its MC4R cAMP EC50. The binder in question is CAHFRWCPPERW (modifications not checked) [Chem. 112] 0.19 nM

// same read-out, input: CAHFRWCAEEEW (modifications not checked) [Chem. 44] 1.53 nM

// same read-out, input: CAHFRWCAAAAW (modifications not checked) [Chem. 87] 0.04 nM

Field: next binder
I'd like to know its MC4R cAMP EC50. The binder in question is CAHFRWCRFFNAF (modifications not checked) [Chem. 13] 0.1 nM

Where do these numbers come from? They come from patent US20200223889A1.
